# subject.of.test: hFASN enzyme (full length) (Homo sapiens)
# Construct: 10 μL hFASN enzyme (full length, 300 ng, purified in house); made in house
# procedure.summary: Fatty Acid Synthase (FASN) inhibition scintillation proximity assay
# Assay type: biochemical
# condition.description: read-out: Human FASN pIC50 (converted)
# Procedure: In this assay, inhibition of FASN activity is measured using ^3H-acetyl-CoA and malonyl-CoA as substrates. ^3H-Acetyl CoA is converted to ^3H-palmitate through a series of reactions by the FASN protein, which contains 7 functional domains and carries out 7 enzymatic reactions to ultimately produce ^3H-palmitate. The assay principle is based upon the fact that ^3H-acetyl-CoA is hydrophilic and the end product, ^3H-palmitate is hydrophobic. […]
Kindly supply the reported IC50 values for the records listed here.
Lab book: enter the figure in nM, no units written.

Challenge: What value of IC50 has been recorded for this entry: `O=C(C1CC1)N1CC(CN2C(=O)C3(CC3)N=C2c2ccc(-c3ccc4nccnc4c3)cc2)C1`
Response given: 2190

Challenge: Also `Cn1ncc2cc(-c3ccc(C4=NC5(CC5)C(=O)N4C[C@@H]4CCN(C(=O)C5(C)CC5)C4)c(F)c3)ccc21` ?
Response given: 39.8

Challenge: Also `CCn1ncc2cc(-c3ccc(C4=NC5(CC5)C(=O)N4CC4CN(C(=O)C5CC5)C4)cc3)ccc21` ?
Response given: 1170

Challenge: Also CC(O)C(=O)N1CC(CN2C(=O)C3(CCOC3)N=C2c2ccc(-c3ccc4c(cnn4C)c3)cc2)C1 (centres unmarked) ?
Response given: 7940

Challenge: Also `N#Cc1cc2cc(-c3ccc(C4=NC5(CC5)C(=O)N4CC4CN(C(=O)C5CC5)C4)cc3)ccc2o1` ?
Response given: 166

Challenge: Also `O=C(C1CC1)N1CC[C@@H](CN2C(=O)C3(CC3)N=C2c2ccc(-c3ccc4[nH]cc(CCO)c4c3)cc2)C1` ?
Response given: 28.8

Challenge: Also `CC(=O)N1CCC2(CC1)N=C(c1ccc(-c3ccc4occc4c3)cc1)N(C[C@@H]1CCN(C(=O)C3CC3)C1)C2=O` ?
Response given: 105

Challenge: Also `Cc1ccc2c(-c3ccc(C4=NC5(CC5)C(=O)N4CC4CN(C(=O)C5CC5)C4)c(F)c3)cccc2n1` ?
Response given: 8130

Challenge: Also `Cn1cc(-c2ccc(-c3ccc(C4=NC5(CCOCC5)C(=O)N4CC4CN(C(=O)C5CC5)C4)cc3)cc2)cn1` ?
Response given: 2450

Challenge: Also `Cc1nc2cc(-c3ccc(C4=NC5(CC5)C(=O)N4CC4CN(C(=O)C5CC5)C4)c(F)c3)ccc2s1` ?
Response given: 102

Challenge: Also Cc1cc(-c2ccc3c(cnn3C)c2)ccc1C1=NC2(CC2)C(=O)N1CC1CN(C(=O)C2CCO2)C1 (centres unmarked) ?
Response given: 110

----------
# subject.of.test: hFASN enzyme (full length) (Homo sapiens, UniProt P49327)
# Construct: 10 μL hFASN enzyme (full length, 300 ng, purified in house); made in house
# procedure.summary: Fatty Acid Synthase (FASN) inhibition scintillation proximity assay
# Type: biochemical
# condition.description: read-out: Human FASN pIC50 (converted)
reported.metric: IC50 (nM)
Lab book: enter the figure in nM, no units written.

Challenge: What value of IC50 has been recorded for this entry: `Cc1cc(-c2ccc3c(cnn3C)c2)ccc1C1=NC2(CC2)C(=O)N1CC1CN(C(=O)C2(N)CC2)C1`
Response given: 263

Challenge: Also `O=C(C1CC1)N1CC[C@@H](CN2C(=O)C3(CCCC3)N=C2c2ccc(-c3cccc4[nH]ccc34)cc2)C1` ?
Response given: 63.1

Challenge: Also `Cn1nc(CO)c2ccc(-c3ccc(C4=NC5(CC5)C(=O)N4C[C@@H]4CCN(C(=O)C5CC5)C4)cc3)cc21` ?
Response given: 162

Challenge: Also `Cc1ccnc2cc(-c3ccc(C4=NC5(CC5)C(=O)N4CC4CN(C(=O)C5CC5)C4)cc3)ccc12` ?
Response given: 129

Challenge: Also `Cc1cc(-c2ccc3cc[nH]c3c2)ccc1C1=NC2(CC2)C(=O)N1C[C@@H]1CCN(C(=O)C2CC2)C1` ?
Response given: 25.1

Challenge: Also `O=C(C1CC1)N1CCC(CN2C(=O)C3(CCCC3)N=C2c2ccc(-c3ccc4[nH]ccc4c3)cc2)CC1` ?
Response given: 129

----------
# subject.of.test: hFASN enzyme (full length) (Homo sapiens, UniProt P49327)
# Construct: 10 μL hFASN enzyme (full length, 300 ng, purified in house); made in house
# procedure.summary: Fatty Acid Synthase (FASN) inhibition scintillation proximity assay
# Format: biochemical
# condition.description: read-out: Human FASN % inhibition @ 10 μM, 10 μM test compound
reported.metric: inhibition at 10 µM (%)
Lab book: enter the figure in %, no units written.

Challenge: What value of inhibition at 10 µM has been recorded for this entry: O=C(N1CC(CN2C(=O)C3(CCOC3)N=C2c2ccc(-c3ccc4occc4c3)cc2)C1)C(F)(F)F (centres unmarked) [compound 897]
Response given: 15

Challenge: Also O=C(C1CC1)N1CC[C@H](CN2C(=O)C3(CC3)N=C2c2ccc(-c3ccc4[nH]ccc4c3)cc2)C1 [compound 210] ?
Response given: 103

Challenge: Also Cc1cc(-c2ccc3cc[nH]c3c2)ccc1C1=NC2(CC2)C(=O)N1CC1CN(C(=O)C2CC2)C1 [compound 303] ?
Response given: 102

Challenge: Also Cc1cc(-c2ccc3ccc(C(F)(F)F)nc3c2)ccc1C1=NC2(CC2)C(=O)N1CC1CN(C(=O)C2(C)CC2)C1 [compound 620] ?
Response given: 71

Challenge: Also CC(=O)N1CCC2(CC1)N=C(c1ccc(-c3ccc4cnccc4c3)cc1)N(C[C@@H]1CCN(C(=O)C3CC3)C1)C2=O [compound 144] ?
Response given: 117

Challenge: Also O=C(C1CC1)N1CC(CN2C(=O)C3(CC3)N=C2c2ccc(-c3ccc4cccnc4c3F)cc2)C1 [compound 315] ?
Response given: 98

Challenge: Also NC(=O)c1cccc(-c2ccc(C3=NC4(CC4)C(=O)N3C[C@@H]3CCN(C(=O)C4CC4)C3)cc2)c1 [compound 494] ?
Response given: 95

Challenge: Also O=C(C1CC1)N1CC[C@@H](CN2C(=O)C3(CC3)N=C2c2ccc(-c3c[nH]c4ccccc34)cc2F)C1 [compound 261] ?
Response given: 98

Challenge: Also Cn1ncc2cc(-c3ccc(C4=NC5(CC5)C(=O)N4C[C@@H]4CCN(C(=O)C5(C)CC5)C4)cc3)ccc21 [compound 201] ?
Response given: 100

Challenge: Also Cn1ncc2cc(-c3ccc(C4=NC5(CC5)C(=O)N4CC4CN(C(=O)C5(C)CC5)C4)c(F)c3)ccc21 [compound 357] ?
Response given: 97

Challenge: Also O=C(C1CC1)N1CC[C@@H](CN2C(=O)C3(CC3)N=C2c2ccc(-c3ccc(Cl)cc3)cc2)C1 [compound 114] ?
Response given: 107

Challenge: Also O=C(N1CCCC1)N1CC[C@@H](CN2C(=O)C3(CCOC3)N=C2c2ccc(-c3ccc4cccnc4c3)cc2)C1 (some centres unmarked) [compound 685] ?
Response given: 84

Challenge: Also O=C(C1CC1)N1CC[C@@H](CN2C(=O)C3(CC3)N=C2c2ccc(-c3nc4ccccc4o3)cc2F)C1 [compound 251] ?
Response given: 101

Challenge: Also O=C(C1CC1)N1CC[C@@H](CN2C(=O)C3(CC3)N=C2c2ccc(-c3nc4ccccc4o3)cc2)C1 [compound 307] ?
Response given: 100

----------
Consider the following IC50 values measured on Fatty Acid Synthase Keto-reductase Domain (FASN KR) (Homo sapiens, UniProt P49327).
Sequence (P49327 whole entry, the tested form may be a part): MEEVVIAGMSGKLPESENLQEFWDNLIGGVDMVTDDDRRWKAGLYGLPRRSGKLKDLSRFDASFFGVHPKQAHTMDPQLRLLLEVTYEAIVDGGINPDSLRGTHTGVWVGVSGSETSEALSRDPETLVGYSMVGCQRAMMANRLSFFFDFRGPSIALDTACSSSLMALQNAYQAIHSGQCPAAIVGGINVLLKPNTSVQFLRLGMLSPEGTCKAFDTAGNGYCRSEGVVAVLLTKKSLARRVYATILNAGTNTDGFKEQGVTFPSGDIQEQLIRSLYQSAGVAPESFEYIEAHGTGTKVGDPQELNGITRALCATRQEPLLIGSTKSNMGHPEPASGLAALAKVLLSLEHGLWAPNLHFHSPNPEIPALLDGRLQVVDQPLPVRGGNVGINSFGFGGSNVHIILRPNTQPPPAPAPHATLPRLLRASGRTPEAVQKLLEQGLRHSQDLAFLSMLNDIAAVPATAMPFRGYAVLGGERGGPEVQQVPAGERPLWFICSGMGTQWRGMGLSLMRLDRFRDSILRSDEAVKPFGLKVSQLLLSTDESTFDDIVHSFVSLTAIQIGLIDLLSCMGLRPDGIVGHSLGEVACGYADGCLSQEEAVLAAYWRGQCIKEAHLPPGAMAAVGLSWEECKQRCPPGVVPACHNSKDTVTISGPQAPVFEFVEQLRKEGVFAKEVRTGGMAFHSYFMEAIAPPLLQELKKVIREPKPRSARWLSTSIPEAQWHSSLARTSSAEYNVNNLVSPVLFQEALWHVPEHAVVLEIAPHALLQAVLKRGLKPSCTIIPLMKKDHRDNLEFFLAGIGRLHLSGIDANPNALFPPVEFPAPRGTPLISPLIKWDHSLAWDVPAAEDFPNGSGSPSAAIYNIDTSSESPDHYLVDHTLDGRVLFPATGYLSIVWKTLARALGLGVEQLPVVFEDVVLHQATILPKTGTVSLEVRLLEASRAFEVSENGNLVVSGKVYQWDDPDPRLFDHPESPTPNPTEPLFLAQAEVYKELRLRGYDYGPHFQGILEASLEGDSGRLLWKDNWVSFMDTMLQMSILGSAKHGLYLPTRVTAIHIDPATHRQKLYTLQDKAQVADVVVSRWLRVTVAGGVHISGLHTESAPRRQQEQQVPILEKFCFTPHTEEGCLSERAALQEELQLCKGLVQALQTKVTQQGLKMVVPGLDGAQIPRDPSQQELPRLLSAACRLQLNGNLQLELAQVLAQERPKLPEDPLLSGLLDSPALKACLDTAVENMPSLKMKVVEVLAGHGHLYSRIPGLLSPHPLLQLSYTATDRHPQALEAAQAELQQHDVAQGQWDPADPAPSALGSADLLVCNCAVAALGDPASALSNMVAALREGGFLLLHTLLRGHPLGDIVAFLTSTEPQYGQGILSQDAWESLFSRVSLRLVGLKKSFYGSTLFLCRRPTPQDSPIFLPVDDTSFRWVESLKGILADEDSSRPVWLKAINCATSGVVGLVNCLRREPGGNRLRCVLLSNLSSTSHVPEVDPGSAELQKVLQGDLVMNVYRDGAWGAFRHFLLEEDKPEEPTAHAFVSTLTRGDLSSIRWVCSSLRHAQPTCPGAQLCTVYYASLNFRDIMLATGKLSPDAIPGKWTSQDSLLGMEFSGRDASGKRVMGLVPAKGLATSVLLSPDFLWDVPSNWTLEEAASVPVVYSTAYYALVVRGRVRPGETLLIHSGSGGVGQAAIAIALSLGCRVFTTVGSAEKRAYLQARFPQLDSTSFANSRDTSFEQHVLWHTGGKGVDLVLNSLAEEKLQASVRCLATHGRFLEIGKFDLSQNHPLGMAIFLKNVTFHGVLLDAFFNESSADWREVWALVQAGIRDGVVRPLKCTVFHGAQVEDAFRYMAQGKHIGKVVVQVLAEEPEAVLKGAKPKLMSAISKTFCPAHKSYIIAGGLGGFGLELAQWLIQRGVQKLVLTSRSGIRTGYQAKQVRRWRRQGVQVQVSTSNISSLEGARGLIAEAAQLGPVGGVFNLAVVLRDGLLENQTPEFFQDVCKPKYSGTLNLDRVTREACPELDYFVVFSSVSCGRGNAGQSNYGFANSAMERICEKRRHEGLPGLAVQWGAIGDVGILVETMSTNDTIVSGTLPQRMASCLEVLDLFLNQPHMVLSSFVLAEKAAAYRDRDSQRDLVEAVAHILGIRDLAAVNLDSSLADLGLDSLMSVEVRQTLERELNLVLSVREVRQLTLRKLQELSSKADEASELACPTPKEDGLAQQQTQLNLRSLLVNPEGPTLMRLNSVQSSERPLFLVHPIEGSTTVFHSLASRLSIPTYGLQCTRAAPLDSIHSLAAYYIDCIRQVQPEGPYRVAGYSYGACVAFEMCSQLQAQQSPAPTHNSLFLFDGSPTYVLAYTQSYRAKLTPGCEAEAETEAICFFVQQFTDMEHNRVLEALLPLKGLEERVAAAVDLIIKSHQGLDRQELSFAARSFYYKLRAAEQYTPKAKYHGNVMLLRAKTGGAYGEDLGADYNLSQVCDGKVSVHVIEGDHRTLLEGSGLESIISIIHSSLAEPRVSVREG
Lab book: enter the figure in µM, no units written.

Challenge: What value of IC50 has been recorded for this entry: `O=C(C1CC1)N1CC[C@@H](CN2C(=O)C3(CC3)N=C2c2ccc(-c3ccc4cncnc4c3)cc2)C1`
Response given: 0.0759

Challenge: Also `Cc1ccc2cc(-c3ccc(C4=NC5(CC5)C(=O)N4CC4CN(C(=O)C5(C)CC5)C4)c(C)c3)ccc2c1` ?
Response given: 0.0437

Challenge: Also `O=C(N1CCCC1)N1CC[C@@H](CN2C(=O)C3(CCOCC3)N=C2c2ccc(-c3ccc4cccnc4c3)cc2)C1` ?
Response given: 0.631

Challenge: Also `O=C(C1CC1)N1CC[C@@H](CN2C(=O)C3(CCCC3)N=C2c2ccc(-c3ccc4[nH]c(=O)[nH]c4c3)cc2F)C1` ?
Response given: 0.49

Challenge: Also `O=C(C1CC1)N1CC[C@@H](CN2C(=O)C3(CC3)N=C2c2ccc(-c3ccc(Cl)cc3)cc2)C1` ?
Response given: 0.234

Challenge: Also `O=C(C1CC1)N1CC[C@@H](CN2C(=O)C3(CC3)N=C2c2ccc(-c3ccc4cc[nH]c4c3)cc2)C1` ?
Response given: 0.0275

Challenge: Also `O=C(C1CC1)N1CC(CN2C(=O)C3(CC3)N=C2c2ccc(-c3ccc4cc(F)ccc4c3)cc2F)C1` ?
Response given: 0.0589
